TESTED SYSTEM: T1, RSV F protein (C-terminal truncated F protein secreted from a recombinant baculovirus) (respiratory syncytial virus (RSV), UniProt P03420 26-524)
T1 construct: also called F antigen; RSV F antigen
T1 sequence (P03420 26-109, chain 1 of 2): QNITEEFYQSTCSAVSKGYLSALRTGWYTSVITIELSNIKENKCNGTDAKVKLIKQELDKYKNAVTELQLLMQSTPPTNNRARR
T1 sequence (P03420 137-524, chain 2 of 2): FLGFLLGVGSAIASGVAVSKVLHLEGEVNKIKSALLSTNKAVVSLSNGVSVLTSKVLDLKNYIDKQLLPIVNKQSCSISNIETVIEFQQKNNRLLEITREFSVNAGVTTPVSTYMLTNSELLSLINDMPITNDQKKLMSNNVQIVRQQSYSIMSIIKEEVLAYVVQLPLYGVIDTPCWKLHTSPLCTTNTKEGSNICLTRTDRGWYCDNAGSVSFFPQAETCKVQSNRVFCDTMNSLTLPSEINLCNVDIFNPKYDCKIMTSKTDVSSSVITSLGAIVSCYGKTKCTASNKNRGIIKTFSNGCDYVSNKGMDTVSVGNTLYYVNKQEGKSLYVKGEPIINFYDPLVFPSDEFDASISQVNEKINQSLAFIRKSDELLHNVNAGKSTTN
PROCEDURE SUMMARY: SPR (BIAcore), F protein immobilized by EDC/NHS, Fab injected; kon and koff measured separately
OBSERVABLE: koff (s⁻¹)
Numbers only; they are read as s⁻¹.

clone 2 (AFFG) (Fab, V domains shown) VH: QVTLRESGPALVKPTQTLTLTCTFSGFSLSTAGMSVGWIRQPPGKALEWLADIWWDDKKDYNPSLKSRLTISKDTSKNQVVLKVTNMDPADTATYYCARSMITNFYFDVWGQGTTVTVSS VL: DIQMTQSPSTLSASVGDRVTITCSASSSVGYMHWYQQKPGKAPKLLIYDTFKLASGVPSRFSGSGSGTEFTLTISSLQPDDFATYYCFQGSGYPFTFGGGTKVEIK    1.82e-06
clone 22 (AFFF) (Fab, V domains shown, also called 4D2-7) VH: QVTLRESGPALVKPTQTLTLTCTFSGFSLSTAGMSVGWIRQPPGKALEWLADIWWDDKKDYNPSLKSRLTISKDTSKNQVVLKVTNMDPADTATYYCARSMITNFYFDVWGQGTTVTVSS VL: DIQMTQSPSTLSASVGDRVTITCSASSSVGYMHWYQQKPGKAPKLLIYDTFKLASGVPSRFSGSGSGTEFTLTISSLQPDDFATYYCFQGSFYPFTFGGGTKVEIK    3.7e-07
clone 3 (PFFF) (Fab, V domains shown, also called 3 (n = 3)) VH: QVTLRESGPALVKPTQTLTLTCTFSGFSLSTPGMSVGWIRQPPGKALEWLADIWWDDKKDYNPSLKSRLTISKDTSKNQVVLKVTNMDPADTATYYCARSMITNFYFDVWGQGTTVTVSS VL: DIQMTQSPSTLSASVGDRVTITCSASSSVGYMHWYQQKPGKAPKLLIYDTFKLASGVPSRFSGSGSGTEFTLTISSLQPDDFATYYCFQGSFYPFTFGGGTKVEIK    1.35e-06
clone 1 (AFSF) (Fab, V domains shown) VH: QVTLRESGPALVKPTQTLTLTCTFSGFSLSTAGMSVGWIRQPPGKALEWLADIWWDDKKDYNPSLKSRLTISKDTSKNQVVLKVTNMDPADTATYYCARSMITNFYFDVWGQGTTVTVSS VL: DIQMTQSPSTLSASVGDRVTITCSASSSVGYMHWYQQKPGKAPKLLIYDTSKLASGVPSRFSGSGSGTEFTLTISSLQPDDFATYYCFQGSFYPFTFGGGTKVEIK    1.62e-06

// next entry
Item clone 23 (AFFY) (Fab, V domains shown) VH: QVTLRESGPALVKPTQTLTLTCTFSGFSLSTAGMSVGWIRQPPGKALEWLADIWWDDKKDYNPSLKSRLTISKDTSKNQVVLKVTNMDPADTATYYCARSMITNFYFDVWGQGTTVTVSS VL: DIQMTQSPSTLSASVGDRVTITCSASSSVGYMHWYQQKPGKAPKLLIYDTFKLASGVPSRFSGSGSGTEFTLTISSLQPDDFATYYCFQGSYYPFTFGGGTKVEIK has what recorded koff?
3.03e-07
